Experiment: Drug reactivity against glutathione in pH 7.4 PBS buffer assessed as half life at 250 uM measured up to 72 hrs by HPLC analysis
Type: ADME
Conditions: PBS buffer with glutathione (thiol reactivity)
measured_property: half-life at 250 µM

Quick one: half-life at 250 µM for C=CC(=O)Oc1cc(C(F)(F)F)cc(C(F)(F)F)c1 ?
< 1.02 min

Cool, now O=C(CBr)c1cc(C(F)(F)F)cc(C(F)(F)F)c1
< 1.02 min

And the next one, FC(F)(F)c1cc(N=C=S)cc(C(F)(F)F)c1 ?
< 1.02 min

Let's switch to this compound now.
Any idea what half-life at 250 µM was measured for FC(F)(F)c1cc(S)cc(C(F)(F)F)c1 ?
1890 min
